protocol: NCI Yeast Anticancer Drug Screen. Data for the rad50 strain (AID 155);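 also: 0% = growth of vehicle-only cultures of the same strain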
measurement.conditions: S. cerevisiae rad50 strain growth inhibition; at 5.0 µM (retest, dose inferred, filed as 0.5); active compounds read high
The panel holds about 79,000 compounds, 15% with a hit somewhere; the sample as a whole holds those more often.
Label true (1) when growth inhibition is at or above 10%; otherwise label false (0).

>>> cat("O=C(NCCCNCCCNC(=O)c1cc(-c2ccccc2)nc2ccccc12)c1cc(-c2ccccc2)nc2ccccc12")
"false (0)"
>>> cat("O=C(/C=C\\c1ccc(Cl)cc1Cl)c1cccs1")
"false (0)"
>>> cat("c1ccc2c(c1)c1ncccc1c1nccnc21")
"false (0)"
>>> cat("O=[N+]([O-])c1cccc([N+](=O)[O-])c1S(=O)(=O)c1ccccc1")
"true (1)"
>>> cat("Cn1c(=O)c(-c2ccccc2)c(N=[N+]=[N-])c2ccccc21")
"false (0)"
>>> cat("COc1ccc(OC)c2cc3ccccc3cc12")
"true (1)"
>>> cat("O=C(N=Nc1cc(Cl)ccc1Cl)NNc1cc(Cl)ccc1Cl")
"false (0)"
>>> cat("CNC1C(OC2C(OC3C(O)C(O)C(N=C(N)N)C(O)C3N=C(N)N)OC(C)C2(O)CO)OC(CO)C(O)C1O (stereo unspecified)")
"false (0)"
>>> cat("N/C(=N\\OC(=O)NC(Cl)=C(Cl)Cl)c1cc(C(F)(F)F)cc(C(F)(F)F)c1")
"true (1)"
>>> cat("CCN(CC)C(C)(C)C(=O)/C=C/c1ccccc1")
"true (1)"
>>> cat("Cc1ccc(N)c(S)c1")
"false (0)"
>>> cat("Cc1cc2c(cc1C(=O)CCC(=O)O)CC1(C2)Cc2cc(C)c(C(=O)CCC(=O)O)cc2C1")
"true (1)"
>>> cat("Clc1ccc(SC(/C=C/NNC2=NC(c3ccccc3)C(c3ccccc3)=NN2)c2ccccc2)cc1 (stereo unspecified)")
"true (1)"
>>> cat("C=CC(C)(O)CCC1C(=C)C(O)CC2C(C)(C)CCCC12C (stereo unspecified)")
"true (1)"
>>> cat("Cc1cc(S(=O)(=O)/N=C(/NN)NNc2cccc(C(F)(F)F)n2)c(S)cc1Cl")
"false (0)"
>>> cat("O=C(O)c1ccccc1-c1ccccc1C(=O)Nc1ccc2c(c1)Cc1ccccc1-2")
"false (0)"
>>> cat("NCCNc1ccc(NCCN)c2c1C(=O)c1c(O)ccc(O)c1C2=O")
"true (1)"
>>> cat("Cc1nc(-c2ccccc2)c(-c2ccccc2)s1")
"true (1)"
>>> cat("COCCOC(=O)CCn1cc(F)c(=O)[nH]c1=O")
"true (1)"
>>> cat("COc1ccc(NC(=S)N/N=C(\\c2ccccc2)c2ccccn2)cc1")
"true (1)"
>>> cat("C[CH2][Sn]([CH2]C)([O]C(=O)C(OC(C)=O)c1ccccc1)[O]C(=O)C(OC(C)=O)c1ccccc1 (stereo unspecified)")
"true (1)"
>>> cat("Oc1c(Br)cc(Br)cc1C1CCCCC1")
"true (1)"
>>> cat("CCCCCCCCCCCCCCC(C(=O)[O-])[n+]1ccccc1 (stereo unspecified)")
"false (0)"
>>> cat("COC(=O)C1=C(C(=O)OC)C2(C)C=CC1O2 (stereo unspecified)")
"false (0)"
>>> cat("CCCCc1cc(O)ccc1O")
"false (0)"
>>> cat("CCCCN1C(=O)N(c2ccc(OCC)cc2)C2N(CCCC)C1C(C)(C)C2(C)C (stereo unspecified)")
"false (0)"
>>> cat("O=C1c2ccccc2C(=O)c2c(NC3CCCCC3)ccc(Nc3ccc(S(=O)(=O)O)cc3)c21")
"false (0)"
>>> cat("CCC(=O)Oc1c(Cl)cc(Cl)c2ccccc12")
"false (0)"
>>> cat("Cc1ccc2ccc(O)cc2c1")
"false (0)"
>>> cat("CN(C)Cc1cc(N=Nc2ccc(Cl)cc2)cc(CN(C)C)c1O")
"false (0)"
>>> cat("CC(C)C1=CCC2C(=C1)CCC1C(C)(C(=O)O)CCCC21C (stereo unspecified) (tested in a mixture with another compound)")
"true (1)"
>>> cat("CCN(CC)CCN1C(=O)c2cccc3cc(OC)cc(c23)C1=O")
"true (1)"
>>> cat("O=C(O)C1OC1(c1cccc(Cl)c1)c1ccccc1Cl (stereo unspecified)")
"true (1)"
>>> cat("CN(CCc1ccccn1)c1ccc2c(c1)Cc1ccccc1-2")
"true (1)"
>>> cat("CCCCCCCCC/C=C/C=C/C(=O)NCC(=O)NC1C(O)C(O)C(Nc2ncnc3nc[nH]c23)OC1C(O)CO (stereo unspecified)")
"true (1)"
>>> cat("CCCCN(CCCC)CCSc1ccc(Cl)cc1")
"false (0)"

These measurements were taken from PubChem BioAssay (NCI).
